Value source: PubChem BioAssay (NCI)

Test system: DMS 114 small cell lung
assay: NCI tumour cell line growth inhibition, 48 h
This section presents molecules with their documented TGI values.

Answered examples (5):
- molecule: "NCc1ccc(O)c(O)c1O"
  TGI: "42.8 µM"
- molecule: "CS(=O)(=O)OCCCCOS(C)(=O)=O"
  TGI: "250 µM"
- molecule: "CCN1C(=O)/C(=C\\c2coc3ccccc3c2=O)SC1=S"
  TGI: "> 100 µM"
- molecule: "C=C(c1ccccc1)[C@@]1(O)CCCC[C@H]1NC(c1ccccc1)c1ccccc1"
  TGI: "22.3 µM"
- molecule: "CC(C)(C)c1cc(O)c2c(c1O)C(=O)CCC2"
  TGI: "69.1 µM"

Just so you know, measured TGI for CC(C)COC(=O)N1N=NC2C3CC(=O)C(O3)C21 (configuration not stated) came out at > 100 µM

Item: O=C(O)\C=C/C=C/C=C/C=C/C(=O)O | TGI: > 100 µM

Record CC(C)NC1CCCCC2c3cc(F)ccc3[C@]12O (some centres not stated) , field TGI: > 100 µM

###

System: EKVX NSCLC
assay: NCI tumour cell line growth inhibition, 48 h; in the data active = GI50 below about 0.43 µM; inactive = the rest
Select the matching outcome among active, inactive

Check out these entries, answers already filled in.
- molecule: "CS(=O)(=O)c1nccc(-c2c(-c3cccc(OCc4ccccc4)c3)nc3sccn23)n1"
  label: "inactive"
- molecule: "COc1ccc(C2CC(c3ccc4ccccc4c3)=NN2/C=C2\\SC(=S)N(NC(=O)Cc3ccccc3Nc3c(Cl)cccc3Cl)C2=O)cc1 (stereo not given)"
  label: "inactive"
- molecule: "CS(=O)(=O)OCCCCOS(C)(=O)=O"
  label: "inactive"

Record lookup: outcome of this test for CC[C@@]1(O)C(=O)OCc2c1cc1n(c2=O)Cc2cc3c([N+](=O)[O-])c(O)ccc3nc2-1 ?
inactive

Recorded test call requested for C/C(=N\NC(=O)c1cccc(S(=O)(=O)N2CCN(C)CC2)c1)c1cc(Cl)ccc1O
active

###

System: MCF7 breast
assay: NCI tumour cell line growth inhibition, 48 h; in the data active = GI50 below about 0.43 µM; inactive = the rest
Return exactly one item of active, inactive

- compound: "COc1ccc(Nc2[nH]n(C3=Nc4ccccc4Sc4ccccc43)c(=O)c2C#N)cc1"
  label: "inactive"
- compound: "COc1ccc(C(=O)OC2C(OC3C(O)COC(O[C@H]4C[C@H]5[C@@H]6CC=C7C[C@@H](O)CC[C@]7(C)[C@H]6CC[C@]5(C)[C@H]4[C@H](C)C(=O)CCC(C)C)C3OC(=O)C(C)C)OCC(O)C2O)cc1 (stereo partly drawn)"
  label: "active"

For CCCCCCCC(=O)SCC/C=C/[C@@H]1CC(=O)NCc2cccc(n2)C2=N[C@@](C)(CS2)C(=O)N[C@@H](C(C)C)C(=O)O1 , which call appears in the assay record?
active

###

System: HT29 colon
assay: NCI tumour cell line growth inhibition, 48 h
readout: TGI

Completed entries (count: 5):
- molecule: "CCCCCCCCCCCCCCC(C(=O)[O-])[n+]1ccccc1 (stereo unspecified)"
  TGI: "> 100 µM"
- molecule: "CC1(C)CCc2cc3c(cc2O1)OC(C)(C)CC3=O"
  TGI: "> 100 µM"
- molecule: "COc1ccc(-c2c(-c3cc4c(c(OC)c3OC)OCO4)noc2N)cc1"
  TGI: "3.15 µM"
- molecule: "COc1ccc2c(c1)OCC1=C2Oc2ccccc2C1"
  TGI: "90 µM"
- molecule: "CCOC(=O)c1ccc(OCc2nc3cc(C(F)(F)F)ccc3nc2-c2ccccc2)cc1"
  TGI: "> 100 µM"

Assay HT29 colon, sample CC(/C=C/c1ccccc1)=N\N=C(C)\C=C\c1ccccc1 , TGI read: > 100 µM

Reported TGI (HT29 colon) for entry COc1ccc(C(=C(C#N)C#N)c2ccc(OC)cc2)cc1 is > 100 µM

Item: CC(=O)N(C(=O)CC(=O)NNCc1ccccc1Cl)c1ccc(Cl)cc1 | System: HT29 colon | TGI: > 10 µM

Entry O=C1c2cccc3c([N+](=O)[O-])ccc(c23)C(=O)N1CCCCl , tested on HT29 colon, has a reported TGI of > 10 µM

The reported TGI value, HT29 colon, for COc1ccc(OC)c2sc(N3C(=O)/C(=C/c4ccc(SC)cc4)N=C3c3ccccc3)nc12 reads 53.3 µM

With HT29 colon as the test system, O=C1C[C@@H]2[C@@H](C=CC23CC3)N1O showed TGI of > 100 µM
